# IC50 listing for each entry below
target-system: unphosphorylated c-KIT kinase (uKIT, Seq. ID no. 2) (Homo sapiens (Human), UniProt P10721)
Sequence (P10721 other isoform, or with tags, fused parts or gaps): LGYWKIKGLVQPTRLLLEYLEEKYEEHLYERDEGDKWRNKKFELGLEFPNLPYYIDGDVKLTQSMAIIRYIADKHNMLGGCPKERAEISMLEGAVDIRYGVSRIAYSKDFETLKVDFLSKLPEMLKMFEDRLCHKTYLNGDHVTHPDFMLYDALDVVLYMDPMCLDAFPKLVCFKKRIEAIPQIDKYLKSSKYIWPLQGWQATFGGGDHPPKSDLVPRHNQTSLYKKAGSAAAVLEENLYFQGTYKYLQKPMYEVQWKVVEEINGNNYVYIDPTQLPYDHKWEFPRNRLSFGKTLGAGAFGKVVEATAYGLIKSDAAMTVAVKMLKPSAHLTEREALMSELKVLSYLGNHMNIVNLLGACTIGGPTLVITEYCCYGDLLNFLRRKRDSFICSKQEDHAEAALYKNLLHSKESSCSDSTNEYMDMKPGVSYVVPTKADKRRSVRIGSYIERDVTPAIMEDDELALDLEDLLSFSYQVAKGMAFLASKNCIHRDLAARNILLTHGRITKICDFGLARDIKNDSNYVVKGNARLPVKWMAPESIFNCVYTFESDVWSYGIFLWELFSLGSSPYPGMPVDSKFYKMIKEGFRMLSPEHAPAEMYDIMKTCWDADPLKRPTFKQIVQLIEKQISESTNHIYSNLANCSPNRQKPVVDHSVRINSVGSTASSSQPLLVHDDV
experiment-summary: uKit kinase assay (coupled pyruvate kinase/lactate dehydrogenase)
condition-summary: enzymatic assay, ATP 2000 μM

| smiles-structure | IC50 |
| --- | --- |
| Cc1nc(NC(=O)N2CCN(C3CCCC3)C2=O)ccc1Oc1ccnc(-c2cnn(C)c2)c1 | < 10 nM |
| CCc1nc(NC(=O)N2CCN(C3CCOCC3)C2=O)ccc1Oc1ccnc(-c2cnn(C)c2)c1 | > 1000 nM |
| Cc1ccc(-c2cc(Oc3ccc(NC(=O)N4CCN(C5CCOCC5)C4=O)nc3C)ccn2)cn1 | 100 to 1000 nM |
| Cn1cc(-c2cc(Oc3cc(F)c(NC(=O)N4CCN(C5CCOCC5)C4=O)cc3Br)ccn2)cn1 | 10 to 100 nM |
| COCCN1CCN(C(=O)Nc2ccc(Oc3ccnc(-c4cn(C)cn4)c3)c(C)n2)C1=O | > 1000 nM |

stdin: Name the recorded IC50 of the item `Cc1nc(NC(=O)N2CCN(C)C2=O)ccc1Oc1ccnc(-c2cnn(C)c2)c1` in your answer.
stdout: > 1000 nM

stdin: Name the recorded IC50 of the item `Cc1cc(-c2cc(Oc3ccc(NC(=O)N4CCN(C5CCOCC5)C4=O)nc3C)ccn2)ccn1` in your answer.
stdout: 10 to 100 nM

stdin: Name the recorded IC50 of the item `Cc1nc(NC(=O)N2CCN(C3CC3)C2=O)ccc1Oc1ccnc(-c2ccc(C3CCN(C)CC3)cc2)c1` in your answer.
stdout: 10 to 100 nM

====

target-system: unphosphorylated c-KIT kinase (uKIT, Seq. ID no. 2) (Homo sapiens (Human), UniProt P10721)
experiment-summary: uKit kinase assay (coupled pyruvate kinase/lactate dehydrogenase)
condition-summary: enzymatic assay, ATP 2000 μM
# IC50 listing for each entry below

stdin: Name the recorded IC50 of the item `Cc1nc(NC(=O)N2CCN([C@@H]3CCOC3)C2=O)ccc1Oc1ccnc(-c2cnn(C)c2)c1` in your answer.
stdout: 0.1 to 1 µM

stdin: Name the recorded IC50 of the item `COCCCN1CCN(C(=O)Nc2ccc(Oc3ccnc(-c4cnn(C)c4)c3)cn2)C1=O` in your answer.
stdout: 0.01 to 0.1 µM

stdin: Name the recorded IC50 of the item CC1CN(C(=O)Nc2ccc(Oc3ccnc(-c4cnn(C)c4)c3)cn2)C(=O)N1C1CCOCC1 (centres unmarked) in your answer.
stdout: 0.01 to 0.1 µM

====

target-system: c-FMS kinase in THP-1 cells (Homo sapiens (Human))
Sequence (P07333 20-972): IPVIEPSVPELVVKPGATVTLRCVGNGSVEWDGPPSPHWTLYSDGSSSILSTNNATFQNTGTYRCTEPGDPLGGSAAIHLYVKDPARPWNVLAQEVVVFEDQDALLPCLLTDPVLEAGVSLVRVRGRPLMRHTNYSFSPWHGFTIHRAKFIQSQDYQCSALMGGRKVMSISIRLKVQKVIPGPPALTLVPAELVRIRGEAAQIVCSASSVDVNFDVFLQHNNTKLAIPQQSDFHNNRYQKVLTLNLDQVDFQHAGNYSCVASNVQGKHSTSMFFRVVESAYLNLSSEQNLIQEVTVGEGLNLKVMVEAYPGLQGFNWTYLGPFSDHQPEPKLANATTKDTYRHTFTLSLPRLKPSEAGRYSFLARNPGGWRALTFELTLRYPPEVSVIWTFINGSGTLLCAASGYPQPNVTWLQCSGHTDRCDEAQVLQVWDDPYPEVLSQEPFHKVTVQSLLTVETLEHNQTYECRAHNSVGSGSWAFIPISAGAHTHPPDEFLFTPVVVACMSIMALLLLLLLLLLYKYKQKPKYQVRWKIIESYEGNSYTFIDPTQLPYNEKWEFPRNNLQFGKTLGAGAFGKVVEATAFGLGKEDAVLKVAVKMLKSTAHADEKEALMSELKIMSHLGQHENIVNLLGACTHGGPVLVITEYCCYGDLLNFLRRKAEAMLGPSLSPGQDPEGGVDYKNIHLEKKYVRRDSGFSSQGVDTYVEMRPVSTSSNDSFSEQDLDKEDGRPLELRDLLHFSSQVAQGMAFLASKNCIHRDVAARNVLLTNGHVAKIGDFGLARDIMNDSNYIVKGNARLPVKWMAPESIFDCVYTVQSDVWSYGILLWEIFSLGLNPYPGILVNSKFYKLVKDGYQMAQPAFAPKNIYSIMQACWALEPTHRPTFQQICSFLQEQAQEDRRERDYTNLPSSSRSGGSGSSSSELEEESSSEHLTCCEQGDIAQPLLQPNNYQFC
experiment-summary: Phospho-FMS ELISA assay in THP-1 cells
Assay type: cell-based
observed-property: IC50

Example results:
| molecule | IC50 |
| --- | --- |
| Cc1nc(NC(=O)N2CCN(C)C2=O)ccc1Oc1ccnc(-c2cnn(C)c2)c1 [Example 41] | 0.01 to 0.1 µM |
| O=C(Nc1ccc(Oc2ccnc(-c3cn[nH]c3)c2)cn1)N1CCN(C2CCOCC2)C1=O [Example 5] | 0.1 to 1 µM |
| Cc1nc(NC(=O)N2CCN(C3CCOC3)C2=O)ccc1Oc1ccnc(-c2cnn(C)c2)c1 (stereo in doubt) [Example 23] | 0.01 to 0.1 µM |

Proceed to the following item.
stdin: Name the recorded IC50 of the item [2H]C([2H])([2H])n1cc(-c2cc(Oc3ccc(NC(=O)N4CCN([C@@H]5CCOC5)C4=O)nc3C)ccn2)cn1 [Example 37] in your answer.
stdout: 0.01 to 0.1 µM

// provenance: patent US9133183B2
